The reported measurements were obtained from PubChem BioAssay (NCATS).

- System: HeLa
- protocol-text: Primary qHTS to identify gynecologic anti-cancer compounds using libraries of approved drugs and bioactive compounds (AID 1345084); also: nearly all actives have a fitted effect of over 55% in size
- test-parameters: Gynecologic cancer cell panel viability, ATPlite luminescence, 48 h; series mostly up to 57.5 µM
- Description: National Center for Advancing Translational Sciences [NCATS] Assay Overview: Chemotherapeutic drug responses vary from cancer to cancer and from patient to patient. […] ATPlite is a luminescence based assay reliant on the conversion of a luciferase substrate to light in the presence of ATP. As a cytotoxic compound will suppress growth and decrease the number of cells, the concentration of ATP will decrease, and less light signal will be detected in the well. […]
Records with an inconclusive call do not appear. The source made the active and inactive calls. Calls follow the shape of the dose curve; as a rule, active = well fitted cell-killing curve with a large enough effect; inconclusive = small, poorly fitted or top-dose-only effect, or effect the other way; inactive = flat fitted curve, though single readings scatter.
Classes used: active, inactive

[[record]]
compound = "COc1cc2nccc(Oc3ccc(NC(=O)C4(C(=O)Nc5ccc(F)cc5)CC4)cc3)c2cc1OC"
discrete_label = "inactive"

[[record]]
compound = "CC1COC2(CCN(c3nc(=O)c4cc(C(F)(F)F)cc([N+](=O)[O-])c4s3)CC2)O1 (centres undefined)"
discrete_label = "inactive"

[[record]]
compound = "N#CCNC(=O)c1ccc(-c2ccnc(Nc3ccc(N4CCOCC4)cc3)n2)cc1"
discrete_label = "inactive"

[[record]]
compound = "Cn1cc(-c2ccncc2)c(-c2ccc(OCc3ccc4ccccc4n3)cc2)n1"
discrete_label = "inactive"

[[record]]
compound = "c1nc2nc(Nc3ccc(N4CCOCC4)cc3)nc(NC3CCCCC3)c2[nH]1"
discrete_label = "active"

[[record]]
compound = "Cc1cc(CN2CCN(c3c(Br)cnc4nc(-c5ccc(N6CCN(C)CC6)cc5)[nH]c34)CC2)no1"
discrete_label = "active"

[[record]]
compound = "CN1CCC(CNc2ccc3ncc(-c4cccc(OC(F)(F)F)c4)n3n2)CC1"
discrete_label = "inactive"

[[record]]
compound = "CNC(=O)c1ccc(N2C(=S)N(c3cnc(C#N)c(C(F)(F)F)c3)C(=O)C23CCC3)cc1F"
discrete_label = "inactive"

[[record]]
compound = "CS(=O)(=O)c1ccc(-c2cnc(N)c(C(=O)Nc3ccccc3)n2)cc1"
discrete_label = "inactive"

